Each entry below carries its reported pEC50.
Target: full length (FL) LXRα (Homo sapiens)
Construct: the full length (FL) proteins of LXRα (amino acids 1-447); NP005684; expressed in transfected cells; host or cells: HEK293
Sequence (Q13133 whole entry, the tested form may be a part): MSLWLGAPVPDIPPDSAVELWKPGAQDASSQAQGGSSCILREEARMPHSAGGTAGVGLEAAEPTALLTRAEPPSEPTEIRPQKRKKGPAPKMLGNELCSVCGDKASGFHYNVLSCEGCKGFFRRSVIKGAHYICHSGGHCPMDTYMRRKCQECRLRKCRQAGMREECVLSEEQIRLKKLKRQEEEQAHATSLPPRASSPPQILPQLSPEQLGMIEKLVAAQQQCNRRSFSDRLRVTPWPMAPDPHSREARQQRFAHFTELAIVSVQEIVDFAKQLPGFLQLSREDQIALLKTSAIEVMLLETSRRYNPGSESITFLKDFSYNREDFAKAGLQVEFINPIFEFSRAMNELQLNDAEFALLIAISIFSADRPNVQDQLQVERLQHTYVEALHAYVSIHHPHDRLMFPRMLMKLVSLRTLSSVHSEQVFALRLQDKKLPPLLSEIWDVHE
Assay: LXR Gal4 reporter transient transfection assay (FL-M2H Gal4α)
Format: cell-based
Conditions: HEK293 cells, full length LXRα; read-out: FL-M2H Gal4α (EC50 range)
pEC50: −log10 of the molar value.
QUANTITY MEASURED: pEC50

INSERT INTO assay_data (smiles_text, quantity_measured, value_measured) VALUES
  ('Cc1ccc(S(=O)(=O)n2c(-c3cccc(-c4ccc(C(=O)O)cc4Cl)c3)c(-c3ccc(C)cc3C#N)c3cc(F)ccc32)cc1', 'pEC50', '> 7.00'),
  ('O=C(O)c1ccc(-c2cccc(-c3c(-c4cn[nH]c4C(F)(F)F)c4cc(F)ccc4n3S(=O)(=O)c3ccc(C(F)F)cc3)c2)c(Cl)c1', 'pEC50', '6.00 to 7.00'),
  ('CN1CC(F)(c2ccccc2-c2c(-c3cccc(-c4ccc(C(=O)O)cc4Cl)c3)n(S(=O)(=O)c3ccc(C(F)F)cc3)c3ccc(F)cc23)C1', 'pEC50', '6.00 to 7.00');

---

Assay: Pharmacokinetics in mice after single oral dosing (blood/plasma and liver exposure)
Format: in vivo, mice (C57/bl6/J)
Details: 20 mg/kg single oral dose, time point 4 h
QUANTITY MEASURED: blood/plasma exposure

INSERT INTO assay_data (compound, value_measured) VALUES
  ('Cc1ccc(S(=O)(=O)n2c(-c3cccc(-c4ccc(CN5CCN(C)CC5)cc4)c3)c(-c3ccsc3C#N)c3cc(F)ccc32)cc1', 'B (B: 300 nM to ≤1 μM)'),
  ('N#Cc1sccc1-c1c(-c2cccc(C3CC3C(=O)O)c2)n(S(=O)(=O)c2ccc(Cl)cc2)c2ccc(F)cc12 (stereo not drawn)', 'D (D: <100 nM)'),
  ('Cc1ccc(S(=O)(=O)n2c(-c3cccc(-c4ccc(C(=O)O)cc4)c3)c(-c3ccsc3C#N)c3cc(F)ccc32)cc1C', 'B (B: 300 nM to ≤1 μM)'),
  ('Cc1ccc(S(=O)(=O)n2c(-c3cccc(-c4ccc(C(=O)O)cc4)c3)c(-c3ccsc3C#N)c3cc(F)ccc32)cc1', 'C (C: 100 nM to <300 nM)'),
  ('N#Cc1sccc1-c1c(-c2cccc(N3CC(C(=O)O)C3)c2)n(S(=O)(=O)c2ccc(Cl)cc2)c2ccccc12', 'D (D: <100 nM)'),
  ('N#Cc1sccc1-c1c(-c2cccc(C3CC3C(=O)O)c2)n(S(=O)(=O)c2ccc(Cl)cc2)c2ccccc12 (stereo not drawn)', 'C (C: 100 nM to <300 nM)');

---

Biological target: full length (FL) LXRα (Homo sapiens)
Construct: the full length (FL) proteins of LXRα (amino acids 1-447); NP005684; expressed in transfected cells; host or cells: HEK293
Test: LXR Gal4 reporter transient transfection assay (FL-M2H Gal4α)
Format: cell-based
Conditions: HEK293 cells, full length LXRα; read-out: FL-M2H Gal4α (EC50 range)
QUANTITY MEASURED: EC50

INSERT INTO assay_data (smiles_text, quantity_measured, value_measured) VALUES
  ('Cc1ccc(S(=O)(=O)n2c(-c3cccc(N4CC(C(=O)NC(C)(C)C(=O)O)C4)c3)c(-c3ccsc3C#N)c3cc(F)ccc32)cc1', 'EC50', '0.1 to 1 µM'),
  ('Cc1ccc(S(=O)(=O)n2c(-c3cccc(N4CC(C)(C(=O)O)C4)c3)c(-c3ccsc3C#N)c3cc(F)ccc32)cc1', 'EC50', '< 0.1 µM'),
  ('Cc1ccc(S(=O)(=O)n2c(-c3cccc(-c4ccc5c(C(=O)O)n[nH]c5c4)c3)c(-c3ccsc3C#N)c3cc(F)ccc32)cc1', 'EC50', '0.1 to 1 µM');
